# method: chemical genetic growth profiling, strain panel (AID 1159580);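 further: tested at 20 µM; growth read once vehicle control cultures reached saturation at 30 °C; 1 = growth at the plate median or of vehicle wells; lower values mean less growth of the strain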
# experimental conditions: S. cerevisiae deletion strains, growth OD, locus YNL067W, strain RPL9B, active compounds read low
In all, about 5,500 compounds went through this assay and about 2,000 (36%) were called active. About 18% were inconclusive and are not listed. This is one part of the list.
normalized growth reference

- compound: "NC(N)=NC(=O)c1nc(Cl)c(N2CCCCCC2)nc1N"
  normalized growth: "1 (inactive)"
- compound: "NC(CSCSCC(N)C(=O)O)C(=O)O (stereo unspecified)"
  normalized growth: "1 (inactive)"
- compound: "CN(C)c1nc(N)c(C(=O)N=C(N)N)nc1Cl"
  normalized growth: "0.986 (inactive)"
- compound: "CC1(C)C(=O)C=C[C@@]2(C)C1C[C@@H](O)[C@]1(C)C2CC[C@@]2(C)[C@H](c3ccoc3)OC(=O)[C@H]3O[C@]321 (stereo partly specified)"
  normalized growth: "1.01 (inactive)"
- compound: "CC(=O)O[C@@H]1CC2C(C)(C)C(=O)C=C[C@]2(C)C2CC[C@@]3(C)[C@H](c4ccoc4)OC(=O)[C@H]4O[C@]43[C@@]21C (stereo partly specified)"
  normalized growth: "1.01 (inactive)"
- compound: "CC1(C)C=CC(=O)[C@@]2(C)C1CC(=O)[C@]1(C)C2CC[C@@]2(C)[C@H](c3ccoc3)OC(=O)C3OC321 (stereo partly specified)"
  normalized growth: "1.02 (inactive)"
- compound: "CC1(C)O[C@H]2CC(=O)OC[C@]23[C@H]2CC[C@@]4(C)[C@H](c5ccoc5)OC(=O)[C@H]5O[C@]54[C@]2(C)C(=O)C[C@@H]13"
  normalized growth: "0.961 (inactive)"
- compound: "CC1(C)C2CC(=O)[C@]3(C)C(CC[C@@]4(C)[C@H](c5ccoc5)OC(=O)C5OC543)[C@@]2(C)[C@@H](O)C[C@H]1O (stereo partly specified)"
  normalized growth: "1.02 (inactive)"
- compound: "C=C(C)[C@H]1COc2cc3oc(=O)ccc3cc2O1"
  normalized growth: "0.841 (active)"
- compound: "NC(=O)NCCCC(N)C(=O)O (stereo unspecified)"
  normalized growth: "1.04 (inactive)"
- compound: "CCCCC1C(=O)N(c2ccccc2)N(c2ccc(O)cc2)C1=O (stereo unspecified)"
  normalized growth: "0.999 (inactive)"
- compound: "COc1ccc2c3c1OC1C(O)CC=C4C(C2)N(C)CCC431 (stereo unspecified)"
  normalized growth: "1.03 (inactive)"
- compound: "CC1(C)C(=O)C=C[C@@]2(C)C1CC(=O)[C@]1(C)C2CC[C@@]2(C)[C@H](c3ccoc3)OC(=O)[C@H]3O[C@]321 (stereo partly specified)"
  normalized growth: "1.01 (inactive)"
- compound: "CC1(C)C2CC(=O)[C@]3(C)C(CC[C@@]4(C)[C@H](c5ccoc5)OC(=O)[C@H]5O[C@]543)[C@@]2(C)C(=O)C[C@H]1O (stereo partly specified)"
  normalized growth: "1.05 (inactive)"
- compound: "CC(=O)[C@@]1(O)CCC2C3C[C@H](C)C4=CC(=O)C=CC4(C)[C@@]3(F)[C@@H](O)C[C@@]21C (stereo partly specified)"
  normalized growth: "0.993 (inactive)"
- compound: "NC(N)=NC(=O)c1nc(Cl)c(N)nc1N"
  normalized growth: "1 (inactive)"
